Each entry below lists one item and its recorded efflux ratio at 2 h, 5 μM value.
method notes: Caco-2 membrane permeability and efflux rate
Assay type: in vitro ADME
run conditions: human, Caco-2, Caco-2, 5 μM, read-out: ER (efflux rate)

compound	efflux ratio at 2 h, 5 μM
C[C@H](CO)Nc1ncc(C(F)(F)F)c(-c2c[nH]c3c(P(C)(C)=O)cccc23)n1	7.64
CC(C)(CO)Nc1ncc(C(F)(F)F)c(-c2c[nH]c3c(P(C)(C)=O)cccc23)n1	2.77
C[C@@H](CO)Nc1ncc(C#N)c(-c2c[nH]c3c(P(C)(C)=O)cccc23)n1	65.9
C[C@@H](CO)Nc1ncc(C(F)(F)F)c(-c2c[nH]c3c(P(C)(C)=O)c(C#N)ccc23)n1	4.38
C[C@@H](CO)Nc1ncc(C(F)(F)F)c(-c2c[nH]c3c(P(C)(C)=O)cc(F)cc23)n1	5.65
CP(C)(=O)c1cccc2c(-c3nc(N[C@H]4CCC[C@@H]4O)ncc3C(F)(F)F)c[nH]c12	4.31
CC1(C)COCC(Nc2ncc(C(F)(F)F)c(-c3c[nH]c4c(P(C)(C)=O)cccc34)n2)CN1 (single isomer, unassigned)	10.3
CN(C)[C@H]1CC[C@H](Nc2ncc(C(F)(F)F)c(-c3c[nH]c4c(P(C)(C)=O)cccc34)n2)C1	12.4
